study.target: PIN8 (Arabidopsis thaliana, UniProt Q9LFP6)
Construct: made in house
procedure.summary: SSM electrophysiology, KD by inhibition of the NPA binding current
setup.conditions: read-out: Rel. Inhibition of NPA peak currents, 500 µM substrate; 100 µM NPA; individual sensors
reported.endpoint: inhibition at 500 µM (%)
Quick reminder: number only, in %, skip the unit.

Solved entries:
{"smiles.string": "O=C(O)Cc1c[nH]c2ccccc12", "units.of.measure": "%", "inhibition at 500 µM": 94.3}
{"smiles.string": "O=C(O)COc1ccccc1", "units.of.measure": "%", "inhibition at 500 µM": 47.3}
{"smiles.string": "O=C(O)COc1cc(Cl)c(Cl)cc1Cl", "units.of.measure": "%", "inhibition at 500 µM": 95.3}

# input Item under review: O=C(O)COc1ccc(Cl)cc1Cl . Reported inhibition at 500 µM?
# output 91.1

# input Try the molecule Cc1cc(Cl)ccc1OCC(=O)O
# output 78.3

====

study.target: PIN8 (Arabidopsis thaliana)
Construct: made in house
procedure.summary: SSM electrophysiology, KD by inhibition of the NPA binding current
setup.conditions: read-out: Rel. Inhibition of NPA peak currents, 1000 µM substrate; 100 µM NPA; individual sensors
Protocol: SSM, using a SURFE2R N1 from Nanion Technologies, was conducted as described. […] Protein was added to liposomes to a calculated lipid-to-protein ratio (LPR) of 10 unless stated otherwise. […] Current response is recorded throughout the entire 3 s. […] On each sensor each measurement consists of three technical replicates where the mean is calculated. KD values were determined as described previously. […]
reported.endpoint: inhibition at 1000 µM (%)
Return type: number; implicit unit %.

Answered examples (3):
{"compound": "O=C(O)COc1cc(Cl)c(Cl)cc1Cl [2,4,5-T, 2,4,5-trichlorophenoxyacetic acid]", "study.target": "PIN8 (Arabidopsis thaliana)", "inhibition at 1000 µM (%)": 98.4}
{"compound": "O=C(O)Cc1c[nH]c2ccccc12 [IAA, indole-3-acetic acid]", "study.target": "PIN8 (Arabidopsis thaliana)", "inhibition at 1000 µM (%)": 84.7}
{"compound": "O=C(O)COc1ccccc1 [PA, phenoxyacetic acid]", "study.target": "PIN8 (Arabidopsis thaliana)", "inhibition at 1000 µM (%)": 60.5}

# input Tell me the measured inhibition at 1000 µM of Cc1cc(Cl)ccc1OCC(=O)O [MCPA, 2-methyl-4-chlorophenoxyacetic acid] , please.
# output 88.6

# input Entry to check: O=C(O)COc1ccc(Cl)cc1Cl [2,4-D, 2,4-dichlorophenoxyacetic acid]
# output 95.2

====

study.target: PIN8 S55A (Arabidopsis thaliana, UniProt Q9LFP6, S55A)
setup.conditions: PIN8 S55A; Michaelis–Menten fit; read-out: EC50 of peak current response
EC50 values by entry
Expressed in µM, but write only the number.

Worked examples follow.
{"smiles.string": "O=C(O)Cc1c[nH]c2ccccc12", "EC50 / µM": 213}
{"smiles.string": "O=C(O)COc1ccc(Cl)cc1Cl", "EC50 / µM": 95}

For the next question, use this compound.
# input I am curious: what EC50 value has been reported for O=C(O)COc1ccc(Cl)cc1 ?
# output 328

====

// values below are reported inhibition at 50 µM
study.target: PIN8 (Arabidopsis thaliana, UniProt Q9LFP6)
Construct: made in house
Sequence (Q9LFP6 1-367): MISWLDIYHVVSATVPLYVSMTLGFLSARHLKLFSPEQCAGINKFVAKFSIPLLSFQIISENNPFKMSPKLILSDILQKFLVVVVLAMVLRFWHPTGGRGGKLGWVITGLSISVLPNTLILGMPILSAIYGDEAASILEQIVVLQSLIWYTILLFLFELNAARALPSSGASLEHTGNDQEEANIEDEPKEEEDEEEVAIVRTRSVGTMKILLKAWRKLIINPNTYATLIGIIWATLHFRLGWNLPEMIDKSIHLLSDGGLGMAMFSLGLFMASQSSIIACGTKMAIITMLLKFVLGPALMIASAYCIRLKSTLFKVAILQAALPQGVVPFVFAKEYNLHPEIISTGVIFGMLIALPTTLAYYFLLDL
procedure.summary: SSM electrophysiology, KD by inhibition of the NPA binding current
setup.conditions: 50 µM substrate; 100 µM NPA; individual sensors; read-out: Rel. Inhibition of NPA peak currents
Hi! Could you send only the number? It should be in %, unit omitted.

Consider the following illustrative entries.
{"smiles.string": "O=C(O)COc1ccc(Cl)cc1", "study.target": "PIN8 (Arabidopsis thaliana, UniProt Q9LFP6)", "inhibition at 50 µM, %": 16}
{"smiles.string": "O=C(O)CCc1ccc(Cl)cc1Cl", "study.target": "PIN8 (Arabidopsis thaliana, UniProt Q9LFP6)", "inhibition at 50 µM, %": 51.9}
{"smiles.string": "Cc1ccccc1OCC(=O)O", "study.target": "PIN8 (Arabidopsis thaliana, UniProt Q9LFP6)", "inhibition at 50 µM, %": 13}

# input Request: inhibition at 50 µM, test system PIN8 (Arabidopsis thaliana, UniProt Q9LFP6), entry Cc1ccc(OCC(=O)O)c(C)c1
# output 21.8

# input Do the same for O=C(O)COc1ccccc1Cl please
# output 33.3
